The origin of these recorded values is PubChem BioAssay.

# PROTOCOL_DESCRIPTION: modulators of HCV replicon luciferase signal, primary screen, HCV replication inhibitor project, Huh7 cells, luciferase reporter (AID 1109);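 note: huh7 hepatoma cells harbouring a luciferase neomycin HCV replicon reporter; luciferase luminescence as measure of HCV replicon replication; test concentration not given here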
# CONDITION: 48 h, higher = more signal
Classify by measured z-score: true (1) if it is equal to or exceeds -2, false (0) if it is smaller.

>>> cat("CCN1C(=O)[C@H]2[C@H]3[C@H](O)[C@H](O)CC(=NOCC(C)C)[C@@H]3CC[C@H]2C1=O")
"true (1)"
>>> cat("COC(=O)CC=C[C@@H](C)[C@@H](C=NO[C@@H]1O[C@H](COC(C)=O)[C@@H](OC(C)=O)[C@H](OC(C)=O)[C@H]1OC(C)=O)OC")
"true (1)"
>>> cat("O=C1CCCC=C1C(O)CCOC(c1ccccc1)(c1ccccc1)c1ccccc1 (configuration not stated)")
"false (0)"
>>> cat("CC(C)=CCCC(C)=CCON=C1C[C@@H](O)[C@@H](O)[C@@H]2[C@@H]3C(=O)N(c4cccc(Oc5ccccc5)c4)C(=O)[C@@H]3CC[C@@H]12")
"true (1)"
>>> cat("CO[C@H]1COC(=O)CC=C[C@H](C)[C@@H](OC)COC(=O)[C@H](C)COC(=O)CC=C[C@@H]1C")
"true (1)"
>>> cat("CC1O[C@H]2C3=C(C(=O)[C@@H]4O[C@@H]4[C@H]3O)[C@@H]1C1[C@@H](C)OC=C3[C@H](O)C4O[C@@H]4C(=NOCc4ccccc4)[C@]312 (some centres not stated)")
"false (0)"
>>> cat("CCOC(=O)[C@H](CC(C)C)NC(=O)CCC1CC(OC(=O)NCc2cccc3ccccc23)CC2(CCCC(COC(=O)NCCOC)O2)O1 (some centres not stated)")
"true (1)"

====

# PROTOCOL_DESCRIPTION: osmotic lysis modulators in infected erythrocytes, primary screen, PSAC antagonist project, cell-based, P. falciparum Indochina, OD700, 3 h (AID 1156)
# CONDITION: higher = more signal, called active from +8 up or from −8 down
Category scheme (z-score): group A = under -0.3, group B = from -0.3 up to 0.7, group C = 0.7 and over

>>> cat("CO[C@H]1COC(=O)CC=C[C@H](C)[C@@H](OC)COC(=O)[C@@H](C)NC(=O)CC=C[C@@H]1C")
"group A"
>>> cat("C[C@H]1CC[C@H]2C(=O)O[C@H](COc3ccc(C(C)(C)C)cc3)CN2[C@@H]1c1ccc(Br)cc1")
"group A"
>>> cat("COCOc1ccc(Br)cc1C(=O)[C@@H]1O[C@H]1c1cccc(OC)c1")
"group B"
>>> cat("O=C(NN=C1C[C@@H](O)[C@@H](O)[C@@H]2[C@@H]3C(=O)N(C4CCCCC4)C(=O)[C@@H]3CC[C@H]12)OCc1ccccc1")
"group B"
>>> cat("C=CC[C@@H]1C=C[C@H](ON=C2[C@H]3CCn4c(=O)n(-c5ccccc5)c(=O)n4[C@H]3[C@H](O)[C@@H]3O[C@H]23)[C@@H](CO)O1")
"group B"
>>> cat("CCOC(=O)[C@H](CC(C)C)NC(=O)CCC1CC(OC(=O)NCc2cccc3ccccc23)CC2(CCCC(COC(=O)NCC3CCCCC3)O2)O1 (stereo not given in full)")
"group B"
>>> cat("COC(=O)[C@@H]1CC[C@H](C)[C@@H](c2ccc(C)cc2)N1C(=O)c1ccc(C=NO[C@@H](C)c2cn([C@H](CO)Cc3ccccc3)nn2)cc1")
"group C"
>>> cat("CCOC(=O)[C@H](Cc1ccccc1)NC(=O)CCC1CC(OC(=O)NCCc2ccc(F)cc2)CC2(CCCC(COC(=O)NCCc3ccccc3OC)O2)O1 (stereo not given in full)")
"group B"
>>> cat("Cc1ccc(S(=O)(=O)NC(CCc2ccccc2)CC(=O)C(C)(C)C)cc1 (stereo not given)")
"group A"
>>> cat("CO[C@@H]1COC(=O)CC=C[C@@H](C)[C@H](OC)COC(=O)[C@@H](C)COC(=O)CC=C[C@H]1C")
"group B"
>>> cat("COc1ccc(O[C@H]2C=C[C@@H](c3ccccc3)O[C@@H]2CON=CC[C@@H]2C=C[C@H](OC(C)=O)[C@@H](COC(C)=O)O2)cc1")
"group C"
>>> cat("C=CC[C@@H]1C=C[C@H](ON=C(C)CCC(=O)OC[C@H]2O[C@H](c3ccccc3)C=C[C@@H]2Oc2ccc(OC)cc2)[C@@H](CO)O1")
"group C"
>>> cat("COc1ccc(COC(=O)NN=C2C[C@@H](O)[C@@H](O)[C@@H]3[C@@H]4C(=O)N(c5ccc(F)cc5F)C(=O)[C@@H]4CC[C@H]23)cc1")
"group C"
>>> cat("CCOC(=O)[C@H](Cc1ccccc1)NC(=O)CCC1CC(OC(=O)NCc2cccc3ccccc23)CC2(CCCC(COC(=O)NCCC(C)C)O2)O1 (stereo not given in full)")
"group A"

====

# Tested on: Sonic hedgehog protein (Shh)
# PROTOCOL_DESCRIPTION: small-molecule binders of Shh protein, primary screen, biochemical, small-molecule microarray, 635/667 nm fluorescence (AID 1151);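 note: Shh protein binding to compounds spotted on small-molecule microarray slides; score combines spot fluorescence intensity with signal-to-noise across triplicate slides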
# CONDITION: small-molecule microarray binding, 635 nm fluorescence; higher = more signal
As shown below, each of these molecules has a reported composite z-score value.
PROPERTY: composite z-score

>>> measured_number("COc1cccc([C@H]2Oc3ccc(OC)cc3C(=NO[C@H](C)c3cn([C@H](CO)Cc4ccccc4)nn3)[C@@H]2O)c1")
0.326
>>> measured_number("CCOC(=O)[C@H](Cc1ccccc1)NC(=O)CCC1CC(OC(=O)NCc2ccc3c(c2)OCO3)CC2(CCCC(COC(=O)NCCc3ccccc3OC)O2)O1 (some centres not stated)")
0.995
>>> measured_number("COC(=O)CC=C[C@@H](C)[C@@H](C=NO[C@@H](C)c1cc(-c2c(C)cc(C)cc2C)no1)NS(=O)(=O)c1ccc(C)cc1")
-1.63
>>> measured_number("COC(=O)CC=C[C@@H](C)[C@H](OCc1cccc(-c2ccccc2)c1)C1CCCCC1")
0.412
>>> measured_number("CC(C)(C)N1C(=O)[C@H]2[C@H]3[C@H](O)C=CC(=O)[C@@H]3CC[C@H]2C1=O")
0.521
>>> measured_number("C=CC[C@@H]1C=C[C@H](ON=C(C)CCC(=O)OC[C@H]2O[C@H](c3ccccc3)C=C[C@@H]2Oc2ccc(OC)cc2)[C@@H](CO)O1")
-0.317
>>> measured_number("CC(CCN1CCc2nc(-c3ccccc3)c(-c3ccccc3)cc2C1)=NOC[C@@H](O)[C@H]1O[C@@H]2OC(C)(C)O[C@@H]2[C@H]1O")
1.09

====

# Tested on: Neuregulin-1 EGF-like domain
# PROTOCOL_DESCRIPTION: binders of neuregulin-1 EGF-like domain, primary screen, biochemical, small-molecule microarray, 635 nm fluorescence (AID 1081);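 note: binding of the protein to compounds printed on small-molecule microarray slides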
# CONDITION: small-molecule microarray binding, higher = more signal
Category scheme (composite z-score): bottom = under -0.1, middle = from -0.1 up to 0.9, top = 0.9 and over

>>> cat("CO[C@H]1COC(=O)[C@@H](C)COC(=O)[C@H](COCc2ccccc2)NC(=O)CC=C[C@H]1C")
"bottom"
>>> cat("CC(=O)OC[C@H]1O[C@H](C#Cc2ccccc2)C=C[C@@H]1OC(C)=O")
"bottom"
>>> cat("CCOC(=O)CCN1C(=O)[C@H]2[C@H]3[C@H](O)[C@H](O)CC(=NOCc4ccccc4)[C@H]3CC[C@H]2C1=O")
"bottom"
>>> cat("CCOC(=O)[C@H](Cc1ccccc1)NC(=O)CCC1CC(OC(=O)NCCc2ccc(F)cc2)CC2(CCCC(COC(=O)NCCOC)O2)O1 (stereo not given in full)")
"top"
>>> cat("CC(=O)OC[C@H]1O[C@H](CCON=C2[C@H]3CCn4c(=O)n(-c5ccccc5)c(=O)n4[C@H]3[C@H](O)[C@@H]3O[C@H]23)C=C[C@@H]1OC(C)=O")
"middle"
>>> cat("CCOC(=O)NN=C1C[C@@H](O)[C@@H](O)[C@@H]2[C@@H]3C(=O)N([C@@H](C)c4ccccc4)C(=O)[C@@H]3CC[C@@H]12")
"middle"
>>> cat("C#CCCCON=C1C[C@@H](O)[C@@H](O)[C@@H]2[C@@H]3C(=O)N(c4ccc(F)cc4F)C(=O)[C@@H]3CC[C@@H]12")
"bottom"
>>> cat("O=C1C[C@@H](O)[C@@H](O)[C@@H]2[C@@H]3C(=O)N(Cc4ccccc4)C(=O)[C@@H]3CC[C@@H]12")
"middle"
>>> cat("COC(=O)[C@H](C)NC(=O)CCC1CC(OC(=O)NCc2ccc3c(c2)OCO3)CC2(CCCC(COC(=O)NCC3CCCCC3)O2)O1 (stereo not given in full)")
"top"
>>> cat("CO[C@H]1COC(=O)CC=C[C@H](C)[C@@H](OC)COC(=O)[C@@H](C)COC(=O)CC=C[C@@H]1C")
"bottom"
>>> cat("CC(=O)OC[C@H]1O[C@@H](ON=C(C)CCN2CCCc3nc(C)c(C)cc32)[C@H](OC(C)=O)[C@@H](OC(C)=O)[C@@H]1OC(C)=O")
"top"
>>> cat("CCOC(=O)[C@H](CC(C)C)NC(=O)CCC1CC(OC(=O)NCc2ccc3c(c2)OCO3)CC2(CCCC(COC(=O)NCC3CCCCC3)O2)O1 (stereo not given in full)")
"top"
>>> cat("COC(=O)CC=C[C@@H](C)[C@@H](C=NO[C@H](C)c1cn([C@H](CO)Cc2ccccc2)nn1)OC")
"middle"
>>> cat("COC(=O)C=CCCc1coc(C=CCNC(=O)OC)n1")
"middle"
